- System Name: hnRNPK full-length (human/mouse (100% identical), UniProt P61978 1-463)
- Protocol: fluorescence anisotropy
The reader will find reported pKd values listed item by item below.
In plain terms, pKd is the concentration in mol/L turned into minus its base-10 logarithm.

In: Which pKd value belongs to GGUCCCCCGCCUCAUUCGCCCCUCUGCUCCC (ssRNA) [CDK6 3'UTR] ?
Out: 6.35

In: Give its pKd value. Item: GCGCCUCCCGGGUUCAAGCGAUUCUCCUGCCUCAGCCUCCCGA (ssRNA) [Sirloin motif]
Out: 6.16

In: Query (binder): GCAGUUUCAGCCCCAGCCCCUAUUUCUGUUUCUGUUUCUGC (structured_RNA) [(2,3)] ; field requested: pKd
Out: 6.15

In: Which value of pKd has been reported for GCAGCCCCAGCCCCAGCCCCUACCCCUGCCCCUGCCCCUGC (structured_RNA) [B motif RNA WT] in the records?
Out: 7.21

In: # input binder: GUCAUUUUCUCCCUUUCUGUUUUUCUUC (ssRNA) [Rab7] ; wanted: its pKd
Out: 6.96

In: Returns the measured pKd for the input binder. Input: ATATTCCCTC (ssDNA) [M5' ssDNA]
Out: 5.85

In: Suppose we examine the binder GCCAACCUCUUCCCAUUUCCCACACUCCAACUCCCU (ssRNA) [Ucp2] ; what pKd value has been reported?
Out: 7.36

In: Sample GGCUCCCCCGACCUCUGUGCUCCCCUCCCCCGACCUCUGUGC (ssRNA) [MYU lncRNA] — what was its pKd?
Out: 7.15
